Source: ChEMBL document CHEMBL1153108

# cytotoxicity values compiled below
Assay Details: Cytotoxicity against mouse BV2 cells by MTT assay
Assay type: cell-based, BV-2
Cond: read-out: INH
Return type: number; implicit unit %.

C=CCC1=C[C@]2(OC)C(=CC1=O)O[C@H](c1ccc3c(c1)OCO3)[C@H]2C : 23.2

Look at this molecule and give its reported cytotoxicity. "C=CCC1=C[C@@]2(OC)C(=CC1=O)O[C@H](c1ccc(OC)c(OC)c1)[C@H]2C"
21.3
